I'd be grateful if you could share measured phosphorylation enrichment for these entries.
biological target: Fyn (UniProt P06241); experiment: phosphorylation enrichment, bacterial display (enrichment ratio); higher = better substrate or ligand; peptides without Tyr show the background;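 further: 11-residue human phosphosite peptides and single-mutation variants displayed on the E. coli surface, counted by deep sequencing, each peptide's frequency after selection divided by its frequency in the unselected input library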;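 further: frequency after pTyr selection over input frequency; kinase dosed for 20-30% of maximal phosphorylation in three min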
Sequence (P06241 whole entry, looked up): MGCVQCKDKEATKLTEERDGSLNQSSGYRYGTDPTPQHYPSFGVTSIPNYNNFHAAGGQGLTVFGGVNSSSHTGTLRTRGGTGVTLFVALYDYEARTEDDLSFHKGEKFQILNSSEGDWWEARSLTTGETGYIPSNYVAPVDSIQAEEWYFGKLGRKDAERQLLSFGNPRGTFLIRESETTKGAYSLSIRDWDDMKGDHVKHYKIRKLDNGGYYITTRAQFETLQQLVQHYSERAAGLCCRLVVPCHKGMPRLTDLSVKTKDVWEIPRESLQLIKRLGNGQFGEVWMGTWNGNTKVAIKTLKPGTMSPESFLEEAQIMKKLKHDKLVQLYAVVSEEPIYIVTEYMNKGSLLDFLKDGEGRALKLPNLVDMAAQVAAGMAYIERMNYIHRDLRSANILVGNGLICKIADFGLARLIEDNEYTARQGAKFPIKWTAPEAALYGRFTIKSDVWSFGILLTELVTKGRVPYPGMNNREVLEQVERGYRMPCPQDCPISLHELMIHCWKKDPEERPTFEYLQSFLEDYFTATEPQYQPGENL
API note: the answer field is a bare number with no unit suffix.

Request: Retrieve phosphorylation enrichment measured for RKMSSYAFFVQ [HMGB1_Y16_G11R] and print it.
Result: 0.822

Request: Output measured phosphorylation enrichment for this item: GGEAIYAAPFA [Abl_opt_1995]
Result: 13.1

Request: Please indicate phosphorylation enrichment recorded for WANPEYTGGFK
Result: 0.422

Request: Look up and state reported phosphorylation enrichment for GEIQEYGAPSD [ABCC1_Y1508]
Result: 0.506

Request: Fill in phosphorylation enrichment for record ETVHRYVELLD [AP1S3_Y87_I83T]
Result: 0.478

Request: Provide one value: measured phosphorylation enrichment of EKKKFYDAKIE [CASP5_Y104_T106A_YF]
Result: 0.369

Request: State its phosphorylation enrichment: IVRSLYEDPED [VHL_Y185_L188P]
Result: 0.455
